Assay: NCI Yeast Anticancer Drug Screen. Data for the rad52 strain (AID 147);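 further: 0% = growth of vehicle-treated control cultures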
Conditions: S. cerevisiae rad52 mutant growth inhibition; at 11.0 µM; stronger effect = higher value
The panel holds about 79,000 compounds, 15% with a hit somewhere; the sample as a whole holds those more often.
Param threshold (30%) applies to growth inhibition; output class 1 when value >= threshold, class 0 when value < threshold.

q: I'd appreciate it if you could say whether CCCCCCCCC/C=C/C=C/C(=O)NCC(=O)NC1C(O)C(O)C(Nc2ncnc3nc[nH]c23)OC1C(O)CO (stereo unspecified) has growth inhibition at least equal to 30%.
a: class 0

q: I'd appreciate it if you could say whether Fc1ccc(NC(=S)SCc2ccc(Cl)c(Cl)c2)cc1F has growth inhibition at least equal to 30%.
a: class 0

q: I'd appreciate it if you could say whether O=[N+]([O-])c1ccc2nc3ccccc3cc2c1 has growth inhibition at least equal to 30%.
a: class 1

q: I'd appreciate it if you could say whether Oc1cccc2c(Cl)ccnc12 has growth inhibition at least equal to 30%.
a: class 1

q: I'd appreciate it if you could say whether CC1(Cl)CC(O)C2(CC1Br)C1(C)OC1C1OC1(Br)C2(C)C (stereo unspecified) has growth inhibition at least equal to 30%.
a: class 1

q: I'd appreciate it if you could say whether Cc1cccc2c(C(O)CBr)cc(-c3ccc(Cl)cc3)nc12 (stereo unspecified) has growth inhibition at least equal to 30%.
a: class 1

q: I'd appreciate it if you could say whether Cc1cc(N=Nc2ccc(S(=O)(=O)[O-])cc2)cc(C(=O)[O-])c1[O-].NC1CCCCC1N.[Na+].[Pt+4] has growth inhibition at least equal to 30%.
a: class 1

q: I'd appreciate it if you could say whether O=Cc1cccc2ccc3ccccc3c12 has growth inhibition at least equal to 30%.
a: class 0

q: I'd appreciate it if you could say whether COc1cc(C2SCC(=O)N2c2ccc(-c3ccc(-n4c(-c5ccccc5)nc5ccccc5c4=O)cc3)cc2)cc(OC)c1OC (stereo unspecified) has growth inhibition at least equal to 30%.
a: class 0

q: I'd appreciate it if you could say whether CC(C)c1ccccc1NC(=O)/C(Cl)=C(\Cl)C(=O)O has growth inhibition at least equal to 30%.
a: class 0

q: I'd appreciate it if you could say whether S=C(Nc1ccc(Cl)c(Cl)c1)SCc1ccc2c(c1)OCO2 has growth inhibition at least equal to 30%.
a: class 1

###

Give measured growth inhibition for each item. Keep answers brief.
Assay: NCI Yeast Anticancer Drug Screen. Data for the mec2-1 strain (AID 157)
Details: S. cerevisiae mec2-1 strain, at 50.0 µM, stronger effect = higher value
About 79,000 compounds went through this panel and 15% of them were active in at least one assay; those are over-represented in the sample as a whole. Active and inactive are the calls of the source. Cut-off read from the data, not from the text of the source: active = growth inhibition above about 70%; inactive = the rest.

Note to self: growth inhibition recorded for OCC1OC(OCC(O)C(O)C(O)C(/C=N/Nc2ccccc2)=N/Nc2ccccc2)C(O)C(O)C1O (stereo unspecified) was 99.5% (active)

Note to self: growth inhibition recorded for COCCOC(=O)CCn1cc(F)c(=O)[nH]c1=O was 83.5% (active)

Note to self: growth inhibition recorded for CC1=NN(c2cccc(Cl)c2)C(=O)C1 was 56.1% (inactive)

Note to self: growth inhibition recorded for COc1cc(CC2CC(c3ccc4c(c3)OCO4)OC2=O)cc(OC)c1OC (stereo unspecified) was -13.4% (inactive)

Note to self: growth inhibition recorded for CC/C(=C(\c1ccccc1)c1ccc(OCCN(C)C)cc1)c1ccccc1 was 93.4% (active)

Note to self: growth inhibition recorded for O=C1C=CC(=C(c2ccccc2)c2ccccc2)c2ccccc21 was 15.1% (inactive)

Note to self: growth inhibition recorded for O=[N+]([O-])c1ccc([N+]2=NC(c3ccccc3)=NN(c3ccccc3)C2)cc1 was 18.4% (inactive)

Note to self: growth inhibition recorded for O=C(Nc1ccccc1)OCCc1ccc(Cl)c(Cl)c1 was 95.3% (active)

Note to self: growth inhibition recorded for C[Si](C)(C)CNC(=O)OCc1ccccc1 was 21.9% (inactive)

Note to self: growth inhibition recorded for CO[C@H]1C[C@](C)(O)Cc2cc3c(c(O)c21)C(=O)c1c(O)cc2c(c1C3=O)O[C@@H]1O[C@@]2(C)[C@H](O)[C@@H](N(C)C)[C@@H]1O was -11.2% (inactive)

Note to self: growth inhibition recorded for COC(=O)c1ccc(CCC2=CC(=O)C(Br)=CC2=O)cc1 was 68.2% (inactive)

Note to self: growth inhibition recorded for CC(C)C1=CCC2C(=C1)CCC1C(C)(C(=O)O)CCCC21C (stereo unspecified) (tested in a mixture with another compound) was 85.2% (active)

Note to self: growth inhibition recorded for O=C(CCCN1CCC2(CC1)CC(=O)N(N1CCCCCC1)C2=O)c1ccc(F)cc1 was 45.8% (inactive)

Note to self: growth inhibition recorded for Cc1c(C(Cc2ccccc2N(C)C(=O)/C=C\C(=O)O)c2c[nH]c3ccccc23)c2ccccc2n1C (stereo unspecified) was 86.8% (active)

Note to self: growth inhibition recorded for COc1ccc2c(c1)C(=O)c1ccccc1C2 was 24.4% (inactive)

Note to self: growth inhibition recorded for O=[N+]([O-])C(=C(Sc1ccccc1)Sc1ccccc1)C(Cl)=C(Cl)Cl was 46.5% (inactive)

###

Assay: NCI Yeast Anticancer Drug Screen. Data for the sgs1 strain (AID 173);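 further: 0% = growth of vehicle-only control cultures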
Details: S. cerevisiae sgs1 mutant, at 1.2 µM, stronger effect = higher value
About 79,000 compounds went through this panel and 15% of them were active in at least one assay; those are over-represented in the sample as a whole. Calls of active or inactive are those of the source. No stated cut-off is given here; in the data, active means growth inhibition above about 70%; inactive means the rest.
test readout: growth inhibition

Note to self: growth inhibition recorded for COC(=O)c1ccc(CCC2=CC(=O)C(Br)=CC2=O)cc1 was 8% (inactive)

Note to self: growth inhibition recorded for CCCCCCCCCCC1CCC(=O)O1 (stereo not drawn) was -1% (inactive)

Note to self: growth inhibition recorded for CO[C@H]1C[C@](C)(O)Cc2cc3c(c(O)c21)C(=O)c1c(O)cc2c(c1C3=O)O[C@@H]1O[C@@]2(C)[C@H](O)[C@@H](N(C)C)[C@@H]1O was -28% (inactive)

Note to self: growth inhibition recorded for CCOC(=O)c1cnc2c(C(F)(F)F)cccc2c1N=[N+]=[N-] was 1% (inactive)

Note to self: growth inhibition recorded for FC(F)(F)c1cc(NC(=S)N2c3ccccc3-n3cccc3C2c2cccnc2)cc(C(F)(F)F)c1 (stereo not drawn) was -8% (inactive)

Note to self: growth inhibition recorded for COC1=CC(=O)C2C(C1=O)C(c1ccc(Cl)cc1)[C@@H]2C (stereo partly drawn) was 33% (inactive)

Note to self: growth inhibition recorded for O=C(c1ccc(Cl)cc1)C1OC12C(=O)Nc1ccccc12 (stereo not drawn) was 8% (inactive)

Note to self: growth inhibition recorded for O=[N+]([O-])c1ccc(=S)[nH]c1 was 0% (inactive)

Note to self: growth inhibition recorded for S=C(N/N=C(/c1ccccc1)c1ccccn1)N1CCCCCC1 was 4% (inactive)

Note to self: growth inhibition recorded for O=Cc1cccc2ccc3ccccc3c12 was -1% (inactive)

Note to self: growth inhibition recorded for O=C1C2C(C(=O)N1c1ccc(OCc3ccccc3)cc1)C1c3ccccc3C2C2CCCCN21 (stereo not drawn) was -2% (inactive)

Note to self: growth inhibition recorded for CC(C)/C(Cl)=N\OC(=O)Nc1ccccc1F was 6% (inactive)

Note to self: growth inhibition recorded for CCN(CC)[P+](c1ccccc1O)(N(CC)CC)N(CC)CC was -82% (inactive)

Note to self: growth inhibition recorded for Cc1[nH]c2ccccc2c1C(c1ccc(N)cc1)c1c(C)[nH]c2ccccc12 was -12% (inactive)

Note to self: growth inhibition recorded for C[CH2][Sn]([CH2]C)([O]C(=O)C(OC(C)=O)c1ccccc1)[O]C(=O)C(OC(C)=O)c1ccccc1 (stereo not drawn) was -1% (inactive)

Note to self: growth inhibition recorded for CC(C)(C)c1nc2c(o1)C(=O)c1ccccc1C2=O was 7% (inactive)

Note to self: growth inhibition recorded for CC(C)NC(=O)OCc1c(COC(=O)NC(C)C)c(-c2ccc(Cl)c(Cl)c2)n2c1CCC2 was -21% (inactive)

Note to self: growth inhibition recorded for COc1ccc2ccc3ccccc3c2c1C=O was -4% (inactive)

Note to self: growth inhibition recorded for O=C1OC(CCl)CN1/N=C/c1ccc([N+](=O)[O-])o1 (stereo not drawn) was -6% (inactive)

Note to self: growth inhibition recorded for CCCCCCCCCCCCCCCCCCNC was -9% (inactive)

Note to self: growth inhibition recorded for CC(C)(CN1CCCCC1)C(=O)CC(SCCS(=O)(=O)O)c1ccc(Br)cc1 (stereo not drawn) was 2% (inactive)

Note to self: growth inhibition recorded for CN(C)c1ccc(C(C#N)=C(C#N)C#N)cc1 was -1% (inactive)

Note to self: growth inhibition recorded for CCN(CC)C(=S)N/N=C(/C)c1cccc(/C(C)=N\NC(=S)N(CC)CC)n1 was -14% (inactive)

###

Assay: NCI Yeast Anticancer Drug Screen. Data for the wt2 strain (AID 169);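 further: 0% = growth of vehicle-treated yeast cultures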
Details: S. cerevisiae wt2 strain growth inhibition; at 3.7 µM; stronger effect = higher value
This is part of a sample that, as a whole, favours compounds with a hit. Of some 79,000 tested, about 15% had one in any assay. Active and inactive are the calls of the source. Cut-off read from the data, not from the text of the source: active = growth inhibition above about 70%; inactive = the rest.
Give measured growth inhibition for each item. Keep answers brief.

Note to self: growth inhibition recorded for COC(=O)CSSCc1ccc([N+](=O)[O-])cc1 was -3% (inactive)

Note to self: growth inhibition recorded for N#C/C(=C\c1cccc(OCc2ccccc2)c1)c1ccc([N+](=O)[O-])cc1 was -43% (inactive)

Note to self: growth inhibition recorded for O=C(Nc1ccccc1)OCCc1ccc(Cl)c(Cl)c1 was -6% (inactive)

Note to self: growth inhibition recorded for O=C(CCCN1CCC2(CC1)CC(=O)N(N1CCCCCC1)C2=O)c1ccc(F)cc1 was 32% (inactive)

Note to self: growth inhibition recorded for O=C(CC(=O)n1nc(-c2ccccc2)c(N=Nc2ccccc2C(=O)O)c1-c1ccccc1)Nc1ccc(Cl)cc1 was -3% (inactive)
